Each recorded value in this set is attributed to paper PMC7775894.

- Test system: M. tb H37Rv strain
- test description: Microplate alamarBlue assay
- Assay type: cell-based, Mycobacterium tuberculosis
- condition notes: Mycobacterium tuberculosis, H37RV
Please respond with reported log10 MIC for every item in the list.
The base-10 logarithm of MIC, taken with MIC in µM, is what appears here.

State the recorded log10 MIC for this entry: COc1ccc2[nH]c(C(=O)NC34CC5CC(CC(C5)C3)C4)cc2c1 [8d]
-0.11

Lookup O=C(NC12CC3CC(CC(C3)C1)C2)c1cc2c(F)cc(F)cc2[nH]1 [8k]
-1.62

Lookup COc1ccc2[nH]c(C(=O)NC34CC5CC(CC(O)(C5)C3)C4)cc2c1 [8e]
1.67

Lookup Cc1ccc2[nH]c(C(=O)NC34CC5CC(CC(O)(C5)C3)C4)cc2c1 [8g]
1.39

Lookup O=C(Nc1nc2ccccc2[nH]1)C12CC3CC(CC(C3)C1)C2 [13a]
1.13

Lookup O=C(Nc1nc2ccccc2[nH]1)NC12CC3CC(CC(C3)C1)C2 [compound 12]
1.41

Lookup O=C(NC12CC3CC(CC(O)(C3)C1)C2)c1cc2ccccc2[nH]1 [8a]
1.71

Lookup COc1cccc2[nH]c(C(=O)NC34CC5CC(CC(C5)C3)C4)cc12 [8b]
-1.02

Lookup Cc1ccc2[nH]c(C(=O)NC34CC5CC(CC(C5)C3)C4)cc2c1 [8f]
-0.70

Lookup COc1cccc2[nH]c(C(=O)NC34CC5CC(CC(O)(C5)C3)C4)cc12 [8c]
1.07

====

- test description: physchem
- condition notes: water, kinetic from dmso stock
property measured: solubility kinetic (µg/mL)
Dear colleague, please return just the value in µg/mL, with no unit written.

State the recorded solubility kinetic for this entry: "O=C(NC12CC3CC(CC(C3)C1)C2)c1cc2c(F)cc(F)cc2[nH]1"
7

Lookup "COc1cccc2[nH]c(C(=O)NC34CC5CC(CC(C5)C3)C4)cc12"
5

Lookup "O=C(NC12CC3CC(CC(O)(C3)C1)C2)c1cc2c(F)cc(F)cc2[nH]1"
19

Lookup "COc1cccc2[nH]c(C(=O)NC34CC5CC(CC(O)(C5)C3)C4)cc12"
30

====

- Test system: Mycobacterium avium (M. avium)
Please respond with reported MIC for every item in the list.

State the recorded MIC for this entry: "O=C(NC12CC3CC(CC(O)(C3)C1)C2)c1cc2c(F)cc(F)cc2[nH]1"
> 185 µM

Lookup "O=C(NC12CC3CC(CC(C3)C1)C2)c1cc2c(F)cc(F)cc2[nH]1"
> 194 µM

Lookup "COc1ccc2[nH]c(C(=O)NC34CC5CC(CC(C5)C3)C4)cc2c1"
> 197 µM

Lookup "O=C(NC12CC3CC(CC(O)(C3)C1)C2)c1cc2ccc(Br)cc2[nH]1"
> 164 µM

Lookup "O=C(NC12CC3CC(CC(O)(C3)C1)C2)c1cc2c(Cl)cc(Cl)cc2[nH]1"
> 169 µM

Lookup O=C(Nc1cc(Cl)cc(Cl)c1)NC12CC3CC(CC(C3)C1)C2 [10a]
47.2 µM

Lookup "Cc1ccc2[nH]c(C(=O)NC34CC5CC(CC(C5)C3)C4)cc2c1"
> 207 µM

Lookup "COc1cccc2[nH]c(C(=O)NC34CC5CC(CC(C5)C3)C4)cc12"
> 197 µM

====

- System: M. tb H37Rv strain
- test description: Microplate alamarBlue assay
- Format: cell-based, Mycobacterium tuberculosis
- condition notes: Mycobacterium tuberculosis, H37RV
property measured: MIC

State the recorded MIC for this entry: O=C(Nc1cc(Cl)cc(Cl)c1)NC12CC3CC(CC(O)(C3)C1)C2 [10b]
> 90 µM

Lookup "O=C(NC12CC3CC(CC(O)(C3)C1)C2)c1cc2ccc(Br)cc2[nH]1"
1.32 to 2.89 µM

Lookup O=C(CC12CC3CC(CC(C3)C1)C2)Nc1nc2ccccc2[nH]1 [13b]
> 103 µM

Lookup "O=C(NC12CC3CC(CC(O)(C3)C1)C2)c1cc2cc(Cl)ccc2[nH]1"
> 93 µM
